System: MDA-MB-231
Assay: NCI tumour cell line growth inhibition, 48 h
The source made the active and inactive calls. No stated cut-off is given here; in the data, active = GI50 up to about 1.1 µM and inactive = higher.
Collected GI50 values appear next to each entry.

Cc1ccc(S(=O)(=O)NC(CO)C(=O)O)cc1 (configuration not stated)
> 100 µM (inactive)

Task: // Input: COC1C(=O)CCC2(CO2)C1(O)C1(C)OC1CC=C(C)C (configuration not stated) . Output its GI50 only.
Result: > 100 µM (inactive)

Task: For C[C@@H]1OC(=O)C[C@H]2CC(=O)N(CCC3CN(C(=O)OCc4ccccc4)c4ccccc43)C[C@@H]21 (some centres not stated) , write its GI50.
Result: > 100 µM (inactive)

Task: Supply GI50 value. Item: COC(=O)C[C@H](COCc1ccccc1)NC(=O)C[C@H](COCc1ccccc1)NC(=O)C[C@H](COCc1ccccc1)NC(=O)OC(C)(C)C
Result: 81.8 µM (inactive)

Task: Indicate its recorded GI50; the molecule in question is O=C1/C(=C/c2ccc(O)cc2)NC(=S)N1CN1CCCCC1
Result: > 100 µM (inactive)

----------
Test system: CCRF-CEM
Experiment: NCI tumour cell line growth inhibition, 48 h
Active and inactive are the calls of the source. Cut-off read from the data, not from the text of the source: active = GI50 up to about 1.1 µM and inactive = higher.
Return exactly one item of True for active, False for inactive

// below: answered compounds
Cc1cc(N)c2cc(NC(=O)Nc3ccc4nc(C)cc(N)c4c3)ccc2n1
False
CCNCC(O)c1ccc(N)c([N+](=O)[O-])c1 (stereo not drawn)
False
COc1ncc(/C=C2\OC(=O)c3ccccc32)c(OC)n1
False

Task: Please state the recorded outcome for this compound: CC(C)(C)OC(=O)C1=C(O)C(C(=O)OC(C)(C)C)C23CCCCC12C(C(=O)OC(C)(C)C)C(O)=C3C(=O)OC(C)(C)C (stereo not drawn)
Result: False

Task: # lookup: test call for CSc1ccc(/C=C2\N=C(c3ccccc3)N(NC(=O)c3c(Cl)c(Cl)c(Cl)c(Cl)c3-c3nc4ccccc4[nH]3)C2=O)cc1
Result: False

Task: Would you mind telling me which call this test gave O=C1OC(c2ccccc2)=N/C1=C/NC(Cc1c[nH]c2ccccc12)C(=O)O (stereo not drawn) ?
Result: False

Task: Hi, do you know how Cc1cn(C2OC(CO)C(O)C2F)c(=O)[nH]c1=O (stereo not drawn) came out in this test?
Result: False

Task: For this compound, state the assay outcome: CC(C)OP(=O)(OC(C)C)C1=NN(c2ccc([N+](=O)[O-])cc2)C(P(=O)(OC(C)C)OC(C)C)=NN1c1ccc([N+](=O)[O-])cc1
Result: False

Task: Record request — test call for CCCCCOc1ccc(NC2=C(Cl)C(=O)c3c(O)ccc(O)c3C2=O)cc1
Result: False

Task: Assay result, entry O=S(=O)(O)c1ccc(/N=N/c2c(O)ccc3ccccc23)cc1 — outcome?
Result: False

Task: Any idea what this test logged for O=CC[C@H]1CCc2ccccc2C12CCC(=O)CC2 ?
Result: False

Task: Give the logged outcome of this assay for the following compound: NC(=S)NC/C=C/Cl
Result: False

Task: Short answer needed: outcome of this test for O=[N+]([O-])C(=C(N1CCOCC1)N1CCOCC1)/C(Cl)=C(\Cl)Br ?
Result: False

Task: Which result was noted for this compound in the test: O=C(NCO)NCOCn1c(=O)n(CO)c(=O)n(CO)c1=O
Result: False

Task: Hey, what did the test say about O=C1C=C(C2=C(C3=CC(=O)c4ccccc4C3=O)C(=O)c3ccccc3C2=O)C(=O)c2ccccc21 ?
Result: True

Task: Outcome? CC(=O)Nc1ccc(C2C(C(=O)Nc3ccccc3)=C(C)NC(C)=C2C(=O)Nc2ccccc2)cc1
Result: False

Task: For Cc1ccccc1/C=C/c1csnn1 , what call appears in the results of this test?
Result: False

Task: Per the records of this test, what outcome belongs to CC(/C=C/c1ccc([N+](=O)[O-])o1)=N/N1CC(CN2CCOCC2)OC1=O (stereo not drawn) ?
Result: True

----------
Test system: RPMI-8226
Assay: NCI tumour cell line growth inhibition, 48 h
Activity calls are given as the source filed them. Cut-off read from the data, not from the text of the source: active = GI50 up to about 1.1 µM and inactive = higher.
Returns: one label drawn from active, inactive

Worked examples, 3 compounds total:
O=C1C2C3C=CC(C2C(=O)N1CO)C1C2C(=O)N(CO)C(=O)C2C31 (stereo not drawn)
inactive
CCN(CC)C(=S)N/N=C1\C(=O)Nc2ccccc21
active
CC(C)=CCc1c2c(c(O)c3c(=O)c4c(oc13)-c1ccc(O)cc1OC4C=C(C)C)C=CC(C)(C)O2 (stereo not drawn)
inactive

Task: What did the test return for CCOC(=O)Nn1cnnc1C ?
Result: inactive

Task: Could you check what this test reported for Nc1ccn(CC(CO)CC(c2ccccc2)P(=O)(O)O)c(=O)n1 (stereo not drawn) ?
Result: inactive

Task: Which outcome was entered for the compound O=C1CCC[C@H]2O[C@@H](COC(=O)c3ccccc3)C[C@H]2O1 in this test?
Result: inactive

Task: Hello, I am checking results. What call was entered for CSc1sc(=S)sc1C(=O)N(C)c1ccccc1 ?
Result: inactive

Task: Any idea what this test logged for COc1c2c(nc3ccccc13)-c1cc(C(CC(=O)OC(C)(C)C)C(=O)OC(C)C)c(CO)c(=O)n1C2 (stereo not drawn) ?
Result: inactive

----------
System: OVCAR-3
Assay: NCI tumour cell line growth inhibition, 48 h
The source made the active and inactive calls. Rule as the data show it: active = GI50 up to about 1.1 µM and inactive = higher.
RESULT_TYPE: GI50

The following compounds have reported results that may help.
C[C@H]1CC[C@@H]2[C@@H](C)C[C@H]3[C@@H]4C(C)(C)OC(=O)[C@]4(C)C(=O)[C@@]23C1=O
> 100 µM (inactive)
CCOC(=O)c1c(SC)nc(-c2ccc(Cl)cc2)sc1=N.[O-][Cl+3]([O-])([O-])O
33.2 µM (inactive)
CC(/C=C/NNC1=NN=C(c2ccccc2)C(c2ccccc2)N1)Sc1ccccc1N (configuration not stated)
10.3 µM (inactive)
CN1CCc2cc(O)c3cc2C1Cc1ccc(cc1)Oc1cc(ccc1O)CC1c2c(cc4c(c2O3)OCO4)CCN1C (configuration not stated)
75 µM (inactive)
c1ccc(NNN2NC(c3ccccc3)C2c2ccccc2)cc1 (configuration not stated)
> 100 µM (inactive)
C[C@]12CC(c3ccccc3O1)C(C(=O)NC13CC4CC(CC(C4)C1)C3)C(=O)N2 (some centres not stated)
44.9 µM (inactive)

Note: attention shifts to another entry.
Task: Fill: GI50 (OVCAR-3) for this compound CC/C(SC)=[N+](\C)[O-]
Result: > 100 µM (inactive)

----------
Catalogue of GI50 readings, one per entry.
System: NCI-H460
Assay: NCI tumour cell line growth inhibition, 48 h
Activity calls are given as the source filed them. Cut-off read from the data, not from the text of the source: active = GI50 up to about 1.1 µM and inactive = higher.

Consider the reported GI50 for these compounds:
O=C(NNC(=O)c1ccncc1)c1ccncc1
> 100 µM (inactive)
COc1cc(/C=N/c2ccc(Oc3ccc(Cl)cc3)c(Cl)c2)cc(OC)c1OC
19.3 µM (inactive)

Task: Entry COc1ccc(-c2cc(-c3cc(Cl)cc(Br)c3O)nc(O)n2)cc1 needs its GI50 filled in; supply it.
Result: 17.9 µM (inactive)

----------
System: A549
Assay: NCI tumour cell line growth inhibition, 48 h
Active and inactive are the calls of the source. Cut-off read from the data, not from the text of the source: active = GI50 up to about 1.1 µM and inactive = higher.
Catalogue of molecules with associated GI50

N#CCC(=O)N/N=C(\C(=O)Nc1ccc(Cl)c(Cl)c1)C1CN(c2ccccc2)N=C1N (stereo unspecified)
> 100 µM (inactive)
O=C1c2cccc([N+](=O)[O-])c2C(=O)N1Cc1ccccc1
> 100 µM (inactive)
COC(=O)C[C@H](COCc1ccccc1)NC(=O)C[C@H](COCc1ccccc1)NC(=O)C[C@H](COCc1ccccc1)NC(=O)OC(C)(C)C
38.5 µM (inactive)
CSc1sc(=S)sc1C(=O)N(C)c1ccccc1
> 100 µM (inactive)
Clc1ccc2cccc3c2c1C1OC3c2ccccc21 (stereo unspecified)
> 100 µM (inactive)

Task: Output measured GI50 for this item: Nc1ncn([C@H]2C[C@H](O)[C@@H](CO)O2)c(=O)n1
Result: 21.4 µM (inactive)

Task: Please supply the value of reported GI50 for the item c1ccc(CN2CCC3(CC2)SSC2(CCN(Cc4ccccc4)CC2)S3)cc1
Result: 27.7 µM (inactive)

Task: // Input: O=[N+]([O-])C(=C(N1CCOCC1)N1CCOCC1)/C(Cl)=C(\Cl)Br . Output its GI50 only.
Result: > 100 µM (inactive)

Task: Specify measured GI50 for O=C(/C=C/c1ccc(-c2ccccc2)cc1)NCc1ccc(C(=O)NCCc2c[nH]c3ccccc23)cc1 .
Result: 19.4 µM (inactive)

Task: Query GI50 for COC(=O)C1=C(C[S+]([O-])c2ccccc2[N+](=O)[O-])ON(C)C1c1ccccc1 (stereo unspecified)
Result: 47.2 µM (inactive)

Task: Consider the molecule O=CC[C@H]1CCc2ccccc2C12CCC(=O)CC2 . State its measured GI50.
Result: 55.7 µM (inactive)

----------
Listing of recorded GI50 by entry.
Tested on: DMS-273
Experiment: NCI tumour cell line growth inhibition, 48 h
Activity calls are given as the source filed them. Rule as the data show it: active = GI50 up to about 1.1 µM and inactive = higher.

CCOC(=O)CCC(=O)C1c2cccc(O)c2C(=O)c2c(O)cccc21
1.28 µM (inactive)
CN1N=C(N)c2cn(C3OC(COP(=O)(O)O)C(O)C3O)c3ncnc1c23 (stereo unspecified)
18.9 µM (inactive)
O=S1(=O)OCCOS(=O)(=O)C1(Br)Br
> 100 µM (inactive)
NC1=NS(=O)(=O)N=C(N)C1=Cc1ccc([N+](=O)[O-])o1
16.7 µM (inactive)
COC(=O)c1oc([N+](=O)[O-])c(-c2ccccc2)c1-c1ccccc1
> 100 µM (inactive)

Proceed to the following item.
Task: Please indicate GI50 recorded for N#[N+][c-]1c(-c2ccccc2)n[nH]c1=O
Result: > 100 µM (inactive)
